# test.description: Cellular viability qHTS for adrenocortical cancer (ACC) cell line SW-13 (AID 1963989);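 further: cells grown in serum-free medium with ITS supplement; on the % scale 0 is the no-effect control and ±100 the full control effect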
# experimental.context: SW-13 ACC cells viability, CellTiter-Glo, 48 h; stronger effect = lower value
Inconclusive results are not listed.
measurement.kind: activity (max response) (%)
Field: numeric (%). Do not append units.

Recorded activity (max response), per entry:
C[C@H](N)C(=O)N[C@@H](C)C(=O)NC1[C@H]2CN(c3nc4c(cc3F)c(=O)c(C(=O)O)cn4-c3ccc(F)cc3F)C[C@@H]12 (stereo partly specified); -13.3
Cc1c(Cl)cccc1S(=O)(=O)Nc1nc(CCN2CCOCC2=O)cs1; 12.4
CCC(=O)Oc1ccc2c(c1)CC[C@@H]1[C@@H]2CC[C@@]2(C)[C@H]1C[C@@H](OC(=O)CC)[C@@H]2OC(=O)CC; 0.953

What measured activity (max response) goes with O=C(O)c1c(O)c(-c2ccccc2)nc2ccccc12 ?
3.37

Next: N[C@H](C(=O)O)[C@@H](O)c1ccc(O)c(O)c1
16

Next: COc1ccc2cc(CCC(C)=O)ccc2c1
2.06

Next: COc1ccc2c(c1)C(=O)N(CCc1ccc(S(=O)(=O)NC(=O)NC3CCCCC3)cc1)C(=O)C2(C)C
-10.4

Next: CCCCN(CCCC)C(C(N)=O)c1ccc(OC)cc1 (stereo unspecified)
14.1

Next: C=C[C@@H]1CN2CCC1C[C@H]2[C@H](O)c1ccnc2ccc(OC)cc12 (stereo partly specified)
5.73

Next: Nc1n[n+]([O-])c2ccccc2[n+]1[O-]
-11.6

Next: O=C(CCCN1CCN(c2ccccn2)CC1)c1ccc(F)cc1
-12.5
